growth values for the molecules below.
Test system: HOP-62 NSCLC
assay-text: NCI-60 one-dose screen, 48 h (100 = growth as untreated, 0 = no growth, -100 = all killed)
details: 10 µM unless noted
About 83,000 compounds went through this panel and 20% of them were active in at least one assay; those are over-represented in the sample as a whole.

molecule	growth [%]
CC(C)(C)CC1(C)NC(=O)NC1=O (stereo not given)	99.1
Cc1ccc(C(C)C)c(OCC(=O)O)c1	101
CC(=O)NC(O)C(Cl)Cl (stereo not given)	95.6
NNc1ncnc2nc[nH]c12	40.7
CCCCCCCCCCCCCCCCCC(=O)NCCNC(=O)CCCCCCCCCCCCCCCCC	89.8
C/C(O)=C(/C=N\C(=S)Nc1ccc(S(=O)(=O)Nc2nccs2)cc1)C(=O)Nc1ccccc1C	96.1
CC(=O)c1cccc(O)c1	93
CCOC(=O)c1cc(Cl)c(O)c(Cl)c1	106
O=C(OC1CCCC1)c1ccccc1Cl	97.1
CC(=O)OCC1OC(n2cnc3c(=S)nc(N)[nH]c32)C(OC(C)=O)C1OC(C)=O (stereo not given)	49.3

###

System: SK-OV-3 ovarian
assay-text: NCI-60 one-dose screen, 48 h (100 = growth as untreated, 0 = no growth, -100 = all killed)
details: 10 µM unless noted
About 83,000 compounds went through this panel and 20% of them were active in at least one assay; those are over-represented in the sample as a whole. Active and inactive are the calls of the source. How the source made its calls: active means growth percent below 10; inactive means the rest.

compound	measured-target	growth
CCOC(C=O)OCC	SK-OV-3 ovarian	106% (inactive)
Nc1c(Br)cc(O)c2c1C(=O)c1ccccc1C2=O	SK-OV-3 ovarian	109% (inactive)
CCOC(=O)C1(N)CCCCC1	SK-OV-3 ovarian	100% (inactive)
CCOC(=O)C(C#N)=C1CCN(C)CC1	SK-OV-3 ovarian	118% (inactive)
Cc1[nH]c(=S)[nH]c(=O)c1C	SK-OV-3 ovarian	106% (inactive)
c1ccc2c(NCCCN3CCN(CCCNc4c5ccccc5nc5ccccc45)CC3)c3ccccc3nc2c1	SK-OV-3 ovarian	-28.4% [100 µM] (active)
CC(C)OCC(CCl)OC(=O)Nc1ccccc1 (centres undefined)	SK-OV-3 ovarian	97.6% (inactive)
Cn1c(=O)[nH]c2ccccc2c1=O	SK-OV-3 ovarian	108% (inactive)
Nc1nc(Cl)cc(Cl)n1	SK-OV-3 ovarian	91.1% (inactive)
COc1ccc(NNS(=O)(=O)O)cc1	SK-OV-3 ovarian	102% (inactive)
COc1cc(OC)c(NC(=O)C(Sc2nc(C)cc(C)c2C#N)c2ccccc2)cc1Cl (centres undefined)	SK-OV-3 ovarian	85.3% (inactive)
OCc1cccnc1	SK-OV-3 ovarian	107% (inactive)
O=C(O)c1ccc([N+](=O)[O-])cc1S(=O)(=O)O	SK-OV-3 ovarian	103% (inactive)
COC(=O)c1ccccc1C(=O)c1c(C)cc(C)cc1C	SK-OV-3 ovarian	102% (inactive)

###

Test system: M14 melanoma
assay-text: NCI-60 one-dose screen, 48 h (100 = growth as untreated, 0 = no growth, -100 = all killed)
details: 10 µM unless noted
Compounds without any hit were thinned out: in the full panel of roughly 83,000, 20% have a hit.

item-smiles	measured-target	growth / %
CCOC(=O)Nc1nccs1	M14 melanoma	106
CS(=O)(=O)c1ccc(/C=C\C(=O)O)cc1	M14 melanoma	94.9
CC(C)c1ncc([N+](=O)[O-])n1C	M14 melanoma	103
CCCCCCCCCCCCCCCCCCSC(=N)N	M14 melanoma	60
S=c1nc2[nH]c3ccccc3c2n[nH]1	M14 melanoma	107
Cc1ccc(S(=O)(=O)CCCl)cc1	M14 melanoma	104
COc1cc(C(=O)NC(=S)NCc2ccncc2)cc(OC)c1OC	M14 melanoma	106
